Assay: AUC (0 to infinity) in male mouse at 5 mg/kg, iv
Format: ADME, organism-based
Settings: in vivo
Each entry below carries its reported AUC(0-inf).
Report only the number, with the unit ng·h/mL understood.

Nc1cc(F)c(S(=O)(=O)NC2COC2)cc1C(=O)Nc1ccc(F)c(C(F)F)c1 900

Next compound, AUC(0-inf) to be filled in.
Data request, read-out AUC(0-inf), for Nc1cc(F)c(S(=O)(=O)N[C@H]2CNC2=O)cc1C(=O)Nc1ccc(F)c(C(F)F)c1
2400

---

Assay: Volume of distribution at steady state in male mouse at 5 mg/kg, iv
Type: ADME, organism-based
Details: in vivo, read-out: Vdss
// reported Vd for each item listed
Hi! Could you send only the number? It should be in L/kg, unit omitted.

Nc1cc(F)c(S(=O)(=O)NC2COC2)cc1C(=O)Nc1ccc(F)c(C(F)F)c1 29.1

Could you share which Vd value was measured for Nc1cc(F)c(S(=O)(=O)N[C@H]2CNC2=O)cc1C(=O)Nc1ccc(F)c(C(F)F)c1 ?
2.95
